The reported numbers originate from PubChem BioAssay AID1159580.

Experiment: chemical genetic growth profiling, strain panel (AID 1159580);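 note: tested at 20 µM; growth read once vehicle control cultures reached saturation at 30 °C; 1 = growth at the plate median or of vehicle wells; lower values mean less growth of the strain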
Conditions: S. cerevisiae deletion strains, growth OD, locus YMR307W, strain GAS1
Hit rate of the full screen: of about 5,500 compounds, about 2,000 (36%) were called active. About 18% were inconclusive and are not listed. Cut-off read from the data, not from the text of the source: active = normalized growth mostly below about 0.91 (no sharp cut-off); inconclusive = no clear call, values can overlap the other calls; inactive = mostly above about 0.92. The list shows a part of the results.
Please reply with one of these outcomes: YES = active, NO = inactive

Below are worked cases with known answers.
# MOLECULE, DISCRETE LABEL
measured = [
    ("COc1cccc2c(C)cc(=O)[nH]c12", "NO"),
    ("NC(CSCSCC(N)C(=O)O)C(=O)O (configuration not stated)", "NO"),
    ("CCOC(=O)c1c(C)cc(OC)cc1O", "NO"),
]

For `O=c1cc(-c2ccc(O)cc2)oc2cc(O[C@@H]3O[C@H](CO)[C@@H](O)[C@H](O)[C@H]3O)cc(O)c12` , what call appears in the results of this test? NO

For `COc1cc2c(cc1OC)[C@@H](c1ccccc1)CN(C)CC2` , what call appears in the results of this test? NO

For CCC(N)C(O)c1ccc(O)c(O)c1 (configuration not stated) , what call appears in the results of this test? NO

For `Cc1cc(OC(=O)c2c(C)cc(O)cc2O)cc(O)c1C(=O)O` , what call appears in the results of this test? NO

For `CCOC(=O)c1c(C)cc(O)cc1O` , what call appears in the results of this test? NO

For CCCC(C)(COC(N)=O)COC(=O)NC(C)C (configuration not stated) , what call appears in the results of this test? NO

For CCC(c1ccc(O)cc1)C(CC)c1ccc(O)cc1 (configuration not stated) , what call appears in the results of this test? YES

---

Experiment: chemical genetic growth profiling, strain panel (AID 1159580)
Settings: S. cerevisiae deletion strains, growth OD, locus YLR039C, strain RIC1, active compounds read low
Screen size: about 5,500 compounds; about 2,000 (36%) were called active. Another 18% or so got no clear call; they are omitted. The list shows a part of the results.
Below, each entry is listed alongside its reported normalized growth.
Give the value as a plain number.

Lab note: measured normalized growth of CC(=O)Oc1ccc2c(c1C(C)C)CCC1C(C)(C)CCC[C@]21C (some centres undefined) was 1.02

Lab note: measured normalized growth of CCC1OC(=O)[C@H](C)C(=O)[C@H](C)[C@@H](OC2O[C@H](C)C[C@H](N(C)C)[C@H]2O)[C@](C)(OC)C2(CCCn3cnc(-c4cccnc4)c3)C[C@@H](C)C(=O)[C@H](C)[C@H]3N(C2)C(=O)O[C@]13C (some centres undefined) was 1.02

Lab note: measured normalized growth of COC(=O)[C@]1(C)CCC[C@]2(C)c3ccc(C(C)C)cc3C(=O)CC12 (some centres undefined) was 0.978

Lab note: measured normalized growth of `CC1=CC(=O)C2=C(C)CC[C@@H]3[C@H](OC(=O)[C@H]3C)[C@@H]12` was 1.02

---

Experiment: chemical genetic growth profiling, strain panel (AID 1159580)
Conditions: S. cerevisiae deletion strains, growth OD, locus YJL092W, strain hpr5
Among all 5,500 compounds or so, about 2,000 (36%) were called active. Another 18% or so got no clear call; they are omitted. Rule as the data show it: active = normalized growth mostly below about 0.91 (no sharp cut-off); inconclusive = no clear call, values can overlap the other calls; inactive = mostly above about 0.92. The list shows a part of the results.
Please reply with one of these outcomes: active, inactive

# COMPOUND, DISCRETE LABEL
records = [
    ("COc1ccc2ccc(=O)oc2c1", "inactive"),
    ("COC(=O)c1c(C)cc(OC)cc1O", "inactive"),
    ("COC1=CC(=O)C(O)=C/C1=C\\C=C\\c1ccccc1", "active"),
    ("C[C@@H]1CC[C@@]2(NC1)O[C@H]1C[C@H]3C4CC=C5C[C@@H](O)CC[C@]5(C)C4CC[C@]3(C)C1[C@@H]2C (stereo partly drawn)", "active"),
]

For C[C@]12C=CC(=O)C=C1CCC1C2[C@@H](O)C[C@@]2(C)C1CC[C@]2(O)C(=O)COP(=O)(O)O (stereo partly drawn) , what call appears in the results of this test? inactive

For `NC(N)=NC(=O)c1nc(Cl)c(N)nc1N` , what call appears in the results of this test? inactive

For `CN(C)c1ccc2nc3ccc(=[N+](C)C)cc-3sc2c1` , what call appears in the results of this test? inactive

For `C=C[C@H]1CN2CC[C@H]1C[C@@H]2[C@@H](OC(=O)OCC)c1ccnc2ccc(OC)cc12` , what call appears in the results of this test? inactive

For C[C@H]1O[C@H](OC2[C@@H](O)[C@@H](O)C(O)[C@H](O)[C@H]2O)[C@@H](N)C[C@@H]1N=C(N)C(=O)O (stereo partly drawn) , what call appears in the results of this test? inactive

---

Assay: chemical genetic growth profiling, strain panel (AID 1159580);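 note: tested at 20 µM; growth read once vehicle control cultures reached saturation at 30 °C; 1 = growth at the plate median or of vehicle wells; lower values mean less growth of the strain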
Settings: S. cerevisiae deletion strains, growth OD, locus YDR335W, strain msn5
Hit rate of the full screen: of about 5,500 compounds, about 2,000 (36%) were called active. Inconclusive results (about 18%) are left out. Rule as the data show it: active = normalized growth mostly below about 0.91 (no sharp cut-off); inconclusive = no clear call, values can overlap the other calls; inactive = mostly above about 0.92. This is one part of the list.
Please reply with one of these outcomes: true (active), false (inactive)

Below are worked cases with known answers.
# COMPOUND, DISCRETE LABEL
records = [
    ("N#Cc1nn(-c2c(Cl)cc(C(F)(F)F)cc2Cl)c(N)c1S(=O)C(F)(F)F (stereo unspecified)", "false"),
    ("COC(=O)[C@]1(C)CCC[C@]2(C)c3ccc(C(C)C)cc3C(=O)CC12 (stereo partly specified)", "false"),
    ("CNC(C)C(O)c1ccccc1 (stereo unspecified)", "false"),
]

For `CCOCN(C(=O)CCl)c1c(C)cccc1CC` , what call appears in the results of this test? false

For C[N+](C)(C)CC(O)CC(=O)O (stereo unspecified) , what call appears in the results of this test? false

For C[C@@H]1O[C@@H](OC[C@H]2OC(Oc3c(-c4ccc(OCCO)c(OCCO)c4)oc4cc(OCCO)cc(O)c4c3=O)[C@H](O)[C@@H](O)[C@@H]2O)[C@H](O)[C@H](O)[C@H]1O (stereo partly specified) , what call appears in the results of this test? false

For OC1CC2CCCC(C1)N2Cc1ccccc1 (stereo unspecified) , what call appears in the results of this test? false

For `COc1cc(O)c2c(=O)c(O)c(-c3ccc(O)c(O)c3)oc2c1` , what call appears in the results of this test? true

For `Cc1cc(C2CCCCC2)n(O)c(=O)c1` , what call appears in the results of this test? true

For `CCc1cc(C(N)=S)ccn1` , what call appears in the results of this test? false

For CC(C1OC(C)(C)C(O)C1O)[C@@H]1CC[C@]2(C)C3=CCC4C(C)(C)C(=O)CC[C@]4(C)C3CC[C@@]12C (stereo partly specified) , what call appears in the results of this test? false

---

Experiment: chemical genetic growth profiling, strain panel (AID 1159580);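 note: tested at 20 µM; growth read once vehicle control cultures reached saturation at 30 °C; 1 = growth at the plate median or of vehicle wells; lower values mean less growth of the strain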
Settings: S. cerevisiae deletion strains, growth OD, locus YKL085W, strain MDH1 (second series), active compounds read low
The whole screen tested about 5,500 compounds, of which about 2,000 (36%) were called active. About 18% were inconclusive and are not listed. The list shows a part of the results.
Mark Yes for normalized growth under 1, No if at or over.

# COMPOUND, DISCRETE LABEL
measured = [
    ("C[C@@H]1CC[C@@]2(NC1)O[C@H]1C[C@H]3C4CC=C5C[C@@H](O)CC[C@]5(C)C4CC[C@]3(C)C1[C@@H]2C (stereo not given in full)", "Yes"),
    ("CC(C)C1COc2cc3oc(=O)ccc3cc2O1 (stereo not given)", "Yes"),
]

Turning to the following compound.
hey, is normalized growth for Cc1ccccc1OCC(O)CO (stereo not given) lower than 1 or not? No

---

Below, each entry is listed alongside its reported normalized growth.
Test: chemical genetic growth profiling, strain panel (AID 1159580);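 note: tested at 20 µM; growth read once vehicle control cultures reached saturation at 30 °C; 1 = growth at the plate median or of vehicle wells; lower values mean less growth of the strain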
Settings: S. cerevisiae deletion strains, growth OD, locus YOR069W, strain VPS5, active compounds read low
About 2,000 (36%) of roughly 5,500 compounds were called active. Roughly 18% stayed inconclusive and do not appear here. The list shows a part of the results.
Give the value as a plain number.

# COMPOUND, normalized growth
records = [
    ("COc1ccc(-c2cc(=O)c3c(O)cc(O[C@@H]4O[C@H](CO[C@H]5O[C@H](C)[C@@H](O)[C@H](O)[C@@H]5O)[C@@H](O)[C@H](O)[C@H]4O)cc3o2)cc1O", 0.987),
]

Lab note: measured normalized growth of `CCOC(=O)NC1=C(C2CC2)C(=O)C(NC(=O)OCC)=C(C2CC2)C1=O` was 0.995

Lab note: measured normalized growth of CC(C)(C)NCC(O)c1cc(Cl)c(N)c(Cl)c1 (centres undefined) was 1.01

Lab note: measured normalized growth of COC(=O)[C@]1(C)CCC[C@]2(C)c3ccc(C(C)C)cc3C(=O)CC12 (some centres undefined) was 0.996

Lab note: measured normalized growth of `C[C@@H]([C@H](O)c1ccccc1)N(C)C` was 1

Lab note: measured normalized growth of C[C@@H]1O[C@@H](OC[C@H]2OC(Oc3c(-c4ccc(O)c(O)c4)oc4cc(O)cc(O)c4c3=O)[C@H](O)[C@@H](O)[C@@H]2O)[C@H](O)[C@H](O)[C@H]1O (some centres undefined) was 0.994

Lab note: measured normalized growth of CCCC(C)(COC(N)=O)COC(=O)NC(C)C (centres undefined) was 0.984

Lab note: measured normalized growth of CC(CC(O)C1OC1(C)C)[C@@H]1CCC2(C)C3=CCC4C(C)(C)C(=O)CCC4(C)C3CC[C@@]12C (some centres undefined) was 1.03

Lab note: measured normalized growth of `CC(=O)OCC1=C(C(=O)O)N2C(=O)[C@@H](NC(=O)Cc3cccs3)[C@H]2SC1` was 0.987
